The reported measurements were obtained from patent US20250270319A1.

# target system: T1, recombinant human CD33 protein (Sino Biologicals) (human, UniProt P20138 18-259)
# T1 construct: Bought protein; also called recombinant CD33
# T1 sequence (P20138 18-259 limits assumed): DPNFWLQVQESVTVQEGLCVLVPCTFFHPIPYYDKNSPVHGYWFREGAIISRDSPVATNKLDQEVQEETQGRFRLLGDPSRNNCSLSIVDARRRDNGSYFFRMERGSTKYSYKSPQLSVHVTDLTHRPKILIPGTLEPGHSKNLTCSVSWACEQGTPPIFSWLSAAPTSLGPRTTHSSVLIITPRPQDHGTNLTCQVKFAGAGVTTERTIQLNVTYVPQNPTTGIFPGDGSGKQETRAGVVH
# protocol summary: ELISA, plate coated with recombinant CD33
EC50 values, listed per item
Dear colleague, please return just the value in nM, with no unit written.

Solved entries (count: 10):
binder="anti-CD33 antibody 6C7H36 (antibody, V domains shown, VH/VL only) VH: EVQLVESGGGLVQPGGSLRLSCAASGFTFSEYAMLWVRQAPGKGLEWVGEIRLKSNNYVTNYAASVKGRFTISRDDSKNSVYLQMNSLKTEDTGVYYCTRAGYYVPFTYWGQGTLVTVSS VL: QLMLTQSPSASASLGASVKLTCTLSSQHSTYTIEWYQQQPGKGPRYLMELKKEGSHSTGDGIPDRFSGSSSGAERYLTISSLQSEDEADYYCGVGHTIKEQFVYEFGGGTKLTVL" readout_value=0.13
binder="anti-CD33 antibody 6C7H48 (antibody, V domains shown, VH/VL only) VH: EVQLVESGGGLVQPGGSLRLSCAGSGFTFSNYEMNWVRQAPGKGLEWVAEIRLKSNNYVTNYAASVKGRFTISRDDSKNSVYLQMNSLKTEDTGVYYCTRAGYYVPFAYWGQGTLVTVSS VL: QPMLTQSPSASASLGASVKLTCTLSSQHSTYTIEWYQQQPGKGPRYLMELKKEGSHSTGDGIPDRFSGSSSGAERYLTISSLQSEDEADYYCGVGLTIKEQFVYVFGGGTKLTVL" readout_value=0.17
binder="anti-CD33 antibody 6C7H42 (antibody, V domains shown, VH/VL only) VH: EVQLVESGGGLVQPGGSLRLSCAASGFTFSEYDMLWVRQAPGKGLEWVGEIRLKSNNYVTNYAASVKGRFTISRDDTKNSVYLQMNSLKTEDTGVYYCTRAGYYVPFAYWGQGTLVTVSS VL: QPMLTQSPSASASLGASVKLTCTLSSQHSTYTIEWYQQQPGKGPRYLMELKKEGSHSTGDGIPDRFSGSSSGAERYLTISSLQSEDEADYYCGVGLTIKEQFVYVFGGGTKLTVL" readout_value=0.2
binder="anti-CD33 antibody 6C7H33 (antibody, V domains shown, VH/VL only) VH: EVQLVESGGGLVQPGGSLRLSCAASGSTFSEYDMLWVRQAPGKGLEWVGEIRLKSNNYVTNYAASVKGRFTISRDDSKNSVYLQMNSLKTEDTGVYYCTRAGYYVPFAYWGQGTLVTVSS VL: QLMLTQSPSASASLGASVKLTCTLSSQHSTYTIEWYQQQPGKGPRYLMELKKEGSHSTGDGIPDRFSGSSSGAERYLTISSLQSEDEADYYCGVGHTIKEQFVYVFGGGTKLTVL" readout_value=0.17
binder="anti-CD33 antibody 6C7H8 (antibody, IgG1, V domains shown, VH/VL only; also called 6C7H8 IgG1; parental antibody) VH: EVQLVESGGGLVQPGGSLRLSCAGSGFTFSNYCMNWVRQAPGKGLEWVAEIRLKSNNYVTNYAASVKGRFTISRDDSKNSVYLQMNSLKTEDTGVYYCTRAGYYVPFAYWGQGTLVTVSS VL: QLVLTQSPSASASLGASVKLTCTLSSQHSTYTIEWYQQQPEKGPRYLMELKKEGSHSTGDGIPDRFSGSSSGAERYLTISSLQSEDEADYYCGVGDTIKEQFVYVFGGGTKLTVL" readout_value=0.21
binder="anti-CD33 antibody 6C7H44 (antibody, V domains shown, VH/VL only) VH: EVQLVESGGGLVQPGGSLRLSCAASGFTFSEYDMLWVRQAPGKGLEWVGEIRLKSNNYVTNYAASVKGRFTISRDDSKNSVYLQMNSLKTEDTGVYYCTRAGYYVPFAYWGQGTLVTVSS VL: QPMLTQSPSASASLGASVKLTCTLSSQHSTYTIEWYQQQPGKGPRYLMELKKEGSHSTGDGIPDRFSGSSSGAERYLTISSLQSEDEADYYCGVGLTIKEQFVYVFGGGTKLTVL" readout_value=0.18
binder="anti-CD33 antibody 6C7H46 (antibody, V domains shown, VH/VL only) VH: EVQLVESGGGLVQPGGSLRLSCAASGFTFSEYAMLWVRQAPGKGLEWVGEIRLKSNNYVTNYAASVKGRFTISRDDSKNSVYLQMNSLKTEDTGVYYCTRAGYYVPFAYWGQGTLVTVSS VL: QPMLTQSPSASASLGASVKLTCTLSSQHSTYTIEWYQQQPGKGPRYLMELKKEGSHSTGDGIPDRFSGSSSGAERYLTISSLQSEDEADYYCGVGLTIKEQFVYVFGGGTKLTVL" readout_value=0.19
binder="anti-CD33 antibody 6C7H5 (antibody, V domains shown, Humanized 6C7; VH/VL only; also called parental humanized antibody) VH: EVQLVESGGGLVQPGGSLRLSCAGSGFTFSNYCMNWVRQAPGKGLEWVAEIRLKSNNYVTNYAASVKGRFTISRDDSKNSVYLQMNSLKTEDTGVYYCTRDGYYVPFAYWGQGTLVTVSS VL: QLVLTQSPSASASLGASVKLTCTLSSQHSTYTIEWYQQQPEKGPRYLMELKKDGSHSTGDGIPDRFSGSSSGAERYLTISSLQSEDEADYYCGVGDTIKEQFVYVFGGGTKLTVL" readout_value=0.16
binder="anti-CD33 antibody 6C7H41 (antibody, V domains shown, VH/VL only) VH: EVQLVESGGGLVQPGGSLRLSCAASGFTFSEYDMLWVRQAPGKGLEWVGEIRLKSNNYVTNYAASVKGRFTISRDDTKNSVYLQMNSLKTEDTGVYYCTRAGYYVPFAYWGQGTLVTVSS VL: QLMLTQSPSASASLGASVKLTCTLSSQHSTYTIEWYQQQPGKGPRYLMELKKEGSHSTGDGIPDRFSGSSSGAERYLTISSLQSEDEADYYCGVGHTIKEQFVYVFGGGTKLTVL" readout_value=0.23
binder="anti-CD33 antibody 6C7H51 (antibody, V domains shown, VH/VL only) VH: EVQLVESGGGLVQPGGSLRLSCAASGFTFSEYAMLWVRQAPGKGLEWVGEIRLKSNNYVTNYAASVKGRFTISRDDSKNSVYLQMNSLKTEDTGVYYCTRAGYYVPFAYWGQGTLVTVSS VL: QPVLTQSPSASASLGASVKLTCTLSSQHSTYTIEWYQQQPEKGPRYLMELKKEGSHSTGDGIPDRFSGSSSGAERYLTISSLQSEDEADYYCGVGVTIKEQFVYVFGGGTKLTVL" readout_value=0.19

# ---- query binder ----
Enquiry: Please give the measured EC50 for this binder: anti-CD33 antibody 6C7H31 (antibody, V domains shown, VH/VL only) VH: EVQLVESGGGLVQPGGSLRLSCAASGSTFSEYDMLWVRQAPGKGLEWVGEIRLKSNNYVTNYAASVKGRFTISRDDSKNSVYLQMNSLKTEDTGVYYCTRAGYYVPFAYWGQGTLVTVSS VL: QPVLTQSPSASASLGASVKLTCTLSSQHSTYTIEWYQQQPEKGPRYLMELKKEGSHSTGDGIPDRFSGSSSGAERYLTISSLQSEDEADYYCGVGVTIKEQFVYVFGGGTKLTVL
Return: 0.21
